Ref: patent US9586951B2

# tested_on: ATM (Homo sapiens, UniProt Q13315)
# Construct: detecting phosphorylation of Chk2 in a human non-small cell lung cancer cell line NCI-H460 (ATCC company); host or cells: NCI-H460 human non-small cell lung cancer cells
# Sequence (Q13315 whole entry): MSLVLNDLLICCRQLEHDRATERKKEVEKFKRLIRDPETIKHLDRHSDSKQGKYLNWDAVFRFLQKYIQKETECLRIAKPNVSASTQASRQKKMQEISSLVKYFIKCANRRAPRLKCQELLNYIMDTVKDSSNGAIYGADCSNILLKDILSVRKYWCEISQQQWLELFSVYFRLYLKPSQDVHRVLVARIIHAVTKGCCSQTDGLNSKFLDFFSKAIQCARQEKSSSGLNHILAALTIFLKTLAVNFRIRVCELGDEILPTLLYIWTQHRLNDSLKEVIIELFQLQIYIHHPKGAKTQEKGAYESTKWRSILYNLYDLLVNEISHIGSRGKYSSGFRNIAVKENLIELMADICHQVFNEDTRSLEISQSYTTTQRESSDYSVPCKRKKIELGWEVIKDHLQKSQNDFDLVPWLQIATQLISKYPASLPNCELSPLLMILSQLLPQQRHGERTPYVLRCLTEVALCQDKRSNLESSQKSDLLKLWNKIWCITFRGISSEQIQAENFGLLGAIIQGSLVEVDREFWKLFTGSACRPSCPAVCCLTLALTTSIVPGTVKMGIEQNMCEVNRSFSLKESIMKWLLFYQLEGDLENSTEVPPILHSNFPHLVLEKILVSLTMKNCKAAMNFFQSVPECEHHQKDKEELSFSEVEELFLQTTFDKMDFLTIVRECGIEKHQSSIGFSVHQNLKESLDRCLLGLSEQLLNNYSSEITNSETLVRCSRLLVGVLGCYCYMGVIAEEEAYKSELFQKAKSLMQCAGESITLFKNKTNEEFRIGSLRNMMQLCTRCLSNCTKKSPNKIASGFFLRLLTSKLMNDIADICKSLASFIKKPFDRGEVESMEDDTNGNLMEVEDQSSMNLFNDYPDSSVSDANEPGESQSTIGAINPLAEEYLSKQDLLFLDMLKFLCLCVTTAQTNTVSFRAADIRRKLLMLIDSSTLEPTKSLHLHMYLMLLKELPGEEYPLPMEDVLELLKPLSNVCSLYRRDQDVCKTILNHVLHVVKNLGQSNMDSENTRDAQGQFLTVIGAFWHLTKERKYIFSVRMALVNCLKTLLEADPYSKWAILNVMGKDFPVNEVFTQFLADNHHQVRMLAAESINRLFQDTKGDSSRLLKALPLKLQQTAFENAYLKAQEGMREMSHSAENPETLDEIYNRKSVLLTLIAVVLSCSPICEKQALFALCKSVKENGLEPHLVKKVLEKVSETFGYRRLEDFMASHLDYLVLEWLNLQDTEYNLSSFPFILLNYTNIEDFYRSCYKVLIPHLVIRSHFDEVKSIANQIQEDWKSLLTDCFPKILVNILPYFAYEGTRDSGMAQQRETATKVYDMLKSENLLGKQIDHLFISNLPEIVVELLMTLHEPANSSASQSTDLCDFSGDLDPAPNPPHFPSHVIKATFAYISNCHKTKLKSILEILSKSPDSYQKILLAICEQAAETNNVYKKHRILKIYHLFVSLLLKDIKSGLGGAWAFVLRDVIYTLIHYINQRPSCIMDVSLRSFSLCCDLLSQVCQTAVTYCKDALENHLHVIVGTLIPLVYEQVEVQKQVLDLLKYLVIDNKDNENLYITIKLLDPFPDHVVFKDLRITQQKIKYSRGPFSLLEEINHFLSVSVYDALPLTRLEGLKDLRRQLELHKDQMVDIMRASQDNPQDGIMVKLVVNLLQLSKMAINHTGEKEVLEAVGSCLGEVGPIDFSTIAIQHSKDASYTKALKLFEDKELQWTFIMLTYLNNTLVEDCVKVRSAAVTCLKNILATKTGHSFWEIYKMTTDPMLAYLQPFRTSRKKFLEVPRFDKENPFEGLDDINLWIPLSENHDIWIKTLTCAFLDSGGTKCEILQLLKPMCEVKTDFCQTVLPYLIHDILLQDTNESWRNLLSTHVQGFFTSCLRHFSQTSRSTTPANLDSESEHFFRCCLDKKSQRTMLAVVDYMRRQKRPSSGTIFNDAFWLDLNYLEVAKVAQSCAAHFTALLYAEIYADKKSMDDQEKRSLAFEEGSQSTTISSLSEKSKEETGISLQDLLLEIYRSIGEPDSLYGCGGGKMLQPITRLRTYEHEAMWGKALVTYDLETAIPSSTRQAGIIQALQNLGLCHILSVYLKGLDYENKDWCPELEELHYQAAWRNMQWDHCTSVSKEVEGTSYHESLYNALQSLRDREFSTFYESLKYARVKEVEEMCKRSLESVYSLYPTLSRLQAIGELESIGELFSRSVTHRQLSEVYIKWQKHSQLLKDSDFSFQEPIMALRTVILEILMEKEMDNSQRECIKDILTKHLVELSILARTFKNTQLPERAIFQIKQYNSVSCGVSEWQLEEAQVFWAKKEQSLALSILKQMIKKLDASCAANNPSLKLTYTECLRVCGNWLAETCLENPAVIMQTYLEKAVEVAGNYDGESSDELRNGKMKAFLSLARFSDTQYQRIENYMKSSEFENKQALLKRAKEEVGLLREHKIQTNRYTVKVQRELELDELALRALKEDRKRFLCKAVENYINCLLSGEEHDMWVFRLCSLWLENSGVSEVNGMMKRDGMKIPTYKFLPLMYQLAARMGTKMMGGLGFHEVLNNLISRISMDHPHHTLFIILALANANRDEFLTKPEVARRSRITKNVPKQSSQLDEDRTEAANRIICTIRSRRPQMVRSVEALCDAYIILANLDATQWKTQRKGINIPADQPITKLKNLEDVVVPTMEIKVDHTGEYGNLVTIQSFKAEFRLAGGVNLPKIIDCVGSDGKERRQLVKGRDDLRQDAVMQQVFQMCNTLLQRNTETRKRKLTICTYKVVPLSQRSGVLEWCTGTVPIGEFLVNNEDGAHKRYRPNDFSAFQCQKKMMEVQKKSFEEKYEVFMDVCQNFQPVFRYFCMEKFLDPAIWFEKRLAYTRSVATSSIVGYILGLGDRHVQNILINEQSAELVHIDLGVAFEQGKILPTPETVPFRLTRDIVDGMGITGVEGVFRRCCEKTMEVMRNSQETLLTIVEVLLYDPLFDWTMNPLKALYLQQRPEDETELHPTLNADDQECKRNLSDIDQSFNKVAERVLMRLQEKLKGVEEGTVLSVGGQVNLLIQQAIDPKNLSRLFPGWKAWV
# procedure_text: ATM inhibition test (phosphorylation of Chk2 generated by ionizing radiation, AlphaScreen SureFire)
# Assay type: cell-based
# test_conditions: phosphorylated Chk2 in NCI-H460 cells, ionizing radiation 8Gy, 1 hour after test compound treatment; read-out: ATM inhibitory activity
Task for the reader: assign each of the following molecules its reported IC50.

Quick one: IC50 of O=c1cc(N2CCOCC2)cc(-c2c(F)ccc3c2Oc2ccc(NCc4cc(C5CC5)ccn4)cc2C3)[nH]1 [Example 2-46-3] ?
< 100 nM

Quick one: IC50 of CC(Nc1ccc2c(c1)Sc1cccc(-c3cc(N4CCOCC4)cc(=O)[nH]3)c1S2)c1ccnc(C#N)n1 (stereo not shown) [Example 1-12-82] ?
100 to 500 nM

Quick one: IC50 of COc1cnc(CNc2ccc3c(c2)Cc2cccc(-c4cc(N5CCOCC5)cc(=O)[nH]4)c2O3)cn1 [Example 2-2-36] ?
100 to 500 nM

Quick one: IC50 of CCCCN1CCC(Nc2ccc3c(c2)Cc2cccc(-c4cc(N5CCOCC5)cc(=O)[nH]4)c2O3)CC1C (stereo not shown) [Example 2-19-2] ?
500 to 2000 nM

Quick one: IC50 of Cc1cccc(C(CNC(=O)OC(C)(C)C)Nc2ccc3c(c2)Cc2cccc(-c4cc(N5CCOCC5)cc(=O)[nH]4)c2O3)n1 (stereo not shown) [Example 2-14-46] ?
100 to 500 nM

Quick one: IC50 of COc1ccncc1CNc1ccc2c(c1)Sc1cccc(-c3cc(N4CCOCC4)cc(=O)[nH]3)c1S2 [Example 1-12-23] ?
100 to 500 nM

Quick one: IC50 of O=c1cc(N2CCOCC2)cc(-c2cccc3c2Sc2ccc(NCc4cncs4)cc2S3)[nH]1 [Example 1-12-54] ?
100 to 500 nM
